Each recorded value in this set is attributed to patent US20240293392A1.

Below: a set of entries, each annotated with reported pIC50.
Target system: recombinant N-terminal MLH1 (residues 15-340) (Homo sapiens, UniProt P40692)
Construct: recombinant N-terminal MLH1 (residues 15-340)
Sequence (P40692 15-340): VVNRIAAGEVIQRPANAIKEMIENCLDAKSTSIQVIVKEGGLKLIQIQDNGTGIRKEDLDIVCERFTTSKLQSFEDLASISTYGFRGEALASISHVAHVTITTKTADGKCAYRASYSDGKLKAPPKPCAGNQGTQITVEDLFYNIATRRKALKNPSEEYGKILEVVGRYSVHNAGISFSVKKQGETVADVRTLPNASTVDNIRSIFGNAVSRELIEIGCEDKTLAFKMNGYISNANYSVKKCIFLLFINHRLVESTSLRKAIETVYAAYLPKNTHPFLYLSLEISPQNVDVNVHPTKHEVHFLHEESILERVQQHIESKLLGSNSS
Assay name: Fluorescence Polarisation Assay for MLH1
Measurement setup: fluorescence polarisation probe displacement; 100 nM N-terminal MLH1, 5 nM probe compound
pIC50: −log10 of the molar value.
Quantity measured: pIC50

1) COCCCC(=O)N1CC[C@H](N(C)c2cccc3c2CN(C(=O)c2c(O)cc(O)cc2OCc2ccccc2)CC3)C1    5.00 to 6.00
2) O=C(c1c(O)cc(O)cc1OCc1ccccc1)N1CCc2cccc(Nc3cccnc3)c2C1    5.00 to 6.00
3) CNc1cccc2c1CN(C(=O)c1c(O)cc(O)cc1OCc1ccccc1)C2    5.00 to 6.00
4) CN(C)CCOc1cc2c(c(N[C@H]3CCOC3)c1)CN(C(=O)c1c(O)cc(O)cc1OCc1ccccc1)CC2    > 6.00
5) O=C(c1c(O)cc(O)cc1OCc1ccccn1)N1CCc2cccc(N[C@H]3CCOC3)c2C1    > 6.00
6) CC(=O)N1CCC(Nc2cccc3c2CN(C(=O)c2c(O)cc(O)cc2OCc2ccccc2)CC3)CC1    5.00 to 6.00
7) O=C(c1c(O)cc(O)cc1OCc1ccc(F)c(F)c1)N1Cc2cccc(NC3CCOC3)c2C1 (stereo not drawn)    > 6.00
8) COc1ccc2c(c1)CCN(C(=O)c1c(O)cc(O)cc1OCc1ccccc1)C2    5.00 to 6.00
9) CN1CCC(Nc2cccc3c2CN(C(=O)c2c(O)cc(O)cc2OCc2ccccc2)CC3)CC1    < 5.00

* * *

Target system: recombinant N-terminal PMS2 (residues 1-365) (Homo sapiens, UniProt P54278)
Construct: recombinant N-terminal PMS2 (residues 1-365)
Sequence (P54278 1-365): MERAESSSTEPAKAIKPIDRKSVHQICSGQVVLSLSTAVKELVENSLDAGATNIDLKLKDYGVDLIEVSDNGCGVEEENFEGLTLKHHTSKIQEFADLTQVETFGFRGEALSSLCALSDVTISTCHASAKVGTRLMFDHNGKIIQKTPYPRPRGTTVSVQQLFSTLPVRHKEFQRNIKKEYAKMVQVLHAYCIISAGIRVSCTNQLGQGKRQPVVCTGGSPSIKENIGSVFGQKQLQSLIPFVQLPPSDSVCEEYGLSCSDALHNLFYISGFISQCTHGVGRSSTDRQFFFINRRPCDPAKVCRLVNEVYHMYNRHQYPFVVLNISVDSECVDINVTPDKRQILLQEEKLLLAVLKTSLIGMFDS
Assay name: Fluorescence Polarisation Assay for PMS2
Format: binding
Measurement setup: fluorescence polarisation probe displacement; 10 nM N-terminal PMS2, 5 nM probe compound; read-out: PMS2 IC50
Method: Fluorescence Polarisation Assay for PMS2 For single point screening, test compounds were added to wells in columns 1-22 whilst DMSO was added to wells in columns 23 and 24 in order to normalise the plate. […] Compound plates were centrifuged for 1 minute at 250×g for 1 minute and were incubated at room temperature for 1 hour before being read on a PheraStar FSX (fitted with 384-well aperture spoon and 540 590 590 FP optic module). […]
Below: a set of entries, each annotated with reported IC50.
Quantity measured: IC50

1. Cc1cccc(COc2cc(O)cc(O)c2C(=O)N2CCc3cccc(N[C@H]4CCOC4)c3C2)c1    < 1 µM
2. O=C(c1c(O)cc(O)cc1OCc1ccc(F)cc1)N1Cc2cccc(NC3CCOC3)c2C1 (stereo not shown)    1 to 10 µM
3. NC(=O)c1cccc(Nc2cccc3c2CN(C(=O)c2c(O)cc(O)cc2OCc2ccccc2)CC3)c1    > 10 µM
4. CC1(NCc2cccc3c2CN(C(=O)c2c(O)cc(O)cc2OCc2ccccc2)C3)COC1    1 to 10 µM

* * *

Below: a set of entries, each annotated with reported IC50.
Target system: recombinant N-terminal MLH1 (residues 15-340) (Homo sapiens)
Construct: recombinant N-terminal MLH1 (residues 15-340)
Assay name: Fluorescence Polarisation Assay for MLH1
Assay type: binding
Measurement setup: fluorescence polarisation probe displacement; 100 nM N-terminal MLH1, 5 nM probe compound
Quantity measured: IC50

1. O=C(c1c(O)cc(O)cc1OCc1ccccn1)N1CCc2cccc(N[C@@H]3CCOC3)c2C1    < 1 µM
2. COCCOc1cc2c(c(N[C@@H]3CCOC3)c1)CN(C(=O)c1c(O)cc(O)cc1OCc1ccccc1)CC2    < 1 µM
3. CN1CCN(Cc2cccc3c2CN(C(=O)c2c(O)cc(O)cc2OCc2ccccc2)C3)CC1    1 to 10 µM
4. O=C(c1c(O)cc(O)cc1OCC1CCOCC1)N1Cc2cccc(NC3CCOC3)c2C1 (stereo not shown)    1 to 10 µM
5. O=C(c1c(O)cc(O)cc1OCc1ccccc1)N1CCc2cccc(NC3CCS(=O)(=O)C3)c2C1 (stereo not shown) [Example 147]    < 1 µM
6. CNC(=O)c1ccc2c(c1)CN(C(=O)c1c(O)cc(O)cc1OCc1ccccc1)C2    < 1 µM
7. O=C(c1c(O)cc(O)cc1OCc1ccccc1)N1CCc2cccc(NC3CCCC3)c2C1    1 to 10 µM
8. O=C(c1c(O)cc(O)cc1OCc1ccccc1)N1CCc2cccc(Nc3cncnc3)c2C1    < 1 µM
9. CN(C)Cc1ccc2c(c1)CN(C(=O)c1c(O)cc(O)cc1OCc1ccccc1)C2    1 to 10 µM
10. O=C(c1c(O)cc(O)cc1OCC1CCCCC1)N1Cc2cccc(NC3CCOC3)c2C1 (stereo not shown)    1 to 10 µM
11. O=C(c1c(O)cc(O)cc1OCc1ccccc1)N1Cc2ccc(CNC3CCOC3)cc2C1 (stereo not shown)    < 1 µM
12. O=C(c1c(O)cc(O)cc1OCc1ccccc1)N1CCc2cccc(NC3CCS(=O)(=O)C3)c2C1 (single isomer, unassigned) [Example 147b]    < 1 µM
13. O=C(c1c(O)cc(O)cc1OCc1ccccc1)N1Cc2cccc(NC3CCOC3)c2C1 (stereo not shown)    < 1 µM
14. O=C(c1c(O)cc(O)cc1OCc1ccccc1)N1Cc2cccc(NC34CCC(C3)OC4)c2C1 (stereo not shown)    < 1 µM
15. O=C(c1c(O)cc(O)cc1OCc1cccnn1)N1Cc2cccc(NC3CCOC3)c2C1 (stereo not shown)    1 to 10 µM
16. Cn1cc(Nc2cccc3c2CN(C(=O)c2c(O)cc(O)cc2OCc2ccccc2)C3)cn1    1 to 10 µM
